- System: HCC1500 (Breast Carcinoma);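 also: after 72 h of two-drug dosing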
- EXPERIMENTAL_PROTOCOL: Bliss excess, mean over the matrix (fraction); higher = more synergy
Each entry below carries its recorded Bliss excess.
// keep it numeric: no unit symbol after the value

Before answering, review these 3 worked examples.
{"MOLECULE": "CC1(C)CCC(CN2CCN(c3ccc(C(=O)NS(=O)(=O)c4ccc(NCC5CCOCC5)c([N+](=O)[O-])c4)c(Oc4cnc5[nH]ccc5c4)c3)CC2)=C(c2ccc(Cl)cc2)C1 [Venetoclax] + Cn1cnc2c(F)c(Nc3ccc(Br)cc3Cl)c(C(=O)NOCCO)cc21 [Selumetinib] (first compound max 1 µM, 7x7, partner max 3 µM)", "RESULT_VALUE": -0.023}
{"MOLECULE": "COc1nnc2ccc(N3CCC(c4ccc(OCCN5CCN(C)C(=O)[C@H]5C)cc4)CC3)nn12 [AZD5153] + C[C@@H]1COCCN1C2=NC(=NC(=C2)C3(CC3)[S@](=N)(=O)C)C4=C5C=CNC5=NC=C4 [AZD6738] (first compound max 1 µM, 7x7, partner max 10 µM)", "RESULT_VALUE": 0.0792}
{"MOLECULE": "Cc1c2c(nn1C)CSCc1cc(n(C)n1)CSc1cc(c3ccccc3c1)OCCCc1c(C(=O)O)n(C)c3c-2c(Cl)ccc13 [AZD5991] + CN(C)CCCOc1ccc(-c2ccc3ncc4c(c3c2)n(C2CCOCC2)c(=O)n4C)cn1 [AZD0156] (first compound max 1 µM, 7x7, partner max 1 µM)", "RESULT_VALUE": 0.0453}

Let us examine a further case.
q: Return reported Bliss excess; argument: COc1cc2ncnc(Nc3ccc(F)c(Cl)c3)c2cc1OCCCN1CCOCC1 [Gefitinib] + CC(C)n1c(=O)n(C)c2cnc3cc(F)c(-c4ccc(OCCCN5CCCCC5)nc4)cc3c21 [AZD1390] (first compound max 10 µM, 7x7, partner max 0.3 µM)
a: -0.0338

Data credit: the supplement of paper PMC11061612
